Where do the numbers come from? From patent US6559160B1.

Target sequence: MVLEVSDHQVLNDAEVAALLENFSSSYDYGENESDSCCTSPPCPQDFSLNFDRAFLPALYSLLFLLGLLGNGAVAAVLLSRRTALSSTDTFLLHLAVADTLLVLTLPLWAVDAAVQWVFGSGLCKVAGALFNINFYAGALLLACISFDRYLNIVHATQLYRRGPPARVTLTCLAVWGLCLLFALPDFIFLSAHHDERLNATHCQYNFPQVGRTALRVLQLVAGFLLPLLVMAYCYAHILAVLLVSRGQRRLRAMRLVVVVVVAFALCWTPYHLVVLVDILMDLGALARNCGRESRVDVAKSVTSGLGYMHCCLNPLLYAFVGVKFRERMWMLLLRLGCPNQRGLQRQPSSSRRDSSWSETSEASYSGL
pIC50: −log10 of the molar value.
Assignment: determine reported pIC50 for the given molecules.

Solved entries:
MOLECULE	pIC50
CCCCCCCC(=O)N(CCN(C)C)C(C)c1nc2ccccc2c(=O)n1-c1ccc(Br)cc1 (stereo not drawn)	5.30 to 6.10
CCCCCCC(=O)N(CCN(C)C)C(C)c1nc2ccccc2c(=O)n1-c1ccc(OC)cc1 (stereo not drawn)	5.30 to 6.10
CCCCCCCC(=O)N(CCN(C)C)C(C)c1nc2ccccc2c(=O)n1-c1ccc(OC)cc1 (stereo not drawn)	5.30 to 6.10
CCCCCCCCCC(=O)N(CCN(C)C)C(C)c1nc2ccccc2c(=O)n1-c1ccc(F)cc1 (stereo not drawn)	≥ 6.10
CCCCCC(=O)N(CCN(C)C)C(C)c1nc2ccccc2c(=O)n1-c1ccc(F)cc1 (stereo not drawn)	< 5.30

Hey, quick one: what's pIC50 for each of these?
1. CCCCCCC(=O)N(CCN(C)C)C(C)c1nc2ccccc2c(=O)n1-c1ccc(F)cc1 (stereo not drawn)
2. CCCCCCCC(=O)N(CCN(C)C)C(C)c1nc2ccccc2c(=O)n1-c1ccc(F)cc1 (stereo not drawn)
3. CCCCCCCCCCCC(=O)N(CCN(C)C)C(C)c1nc2ccccc2c(=O)n1-c1ccc(Cl)cc1 (stereo not drawn)
4. CCCCCCCCCCCCCC(=O)N(CCN(C)C)C(C)c1nc2ccccc2c(=O)n1-c1ccc(OC)cc1 (stereo not drawn)

(A)
["< 5.30", "5.30 to 6.10", "5.30 to 6.10", "≥ 6.10"]

---

PROPERTY: melting point (°C)
Answers are plain numbers, in °C.

Solved entries:
MOLECULE	melting point [°C]
CCCCCCCCCC(=O)N(CCN(C)C)C(C)c1nc2c(OC)c(OC)c(OC)cc2c(=O)n1-c1ccc(F)cc1 (stereo not shown)	106.7
CCCCCCCCCC(=O)N(CCN(C)C)C(C)c1nc2ccc(Cl)cc2c(=O)n1-c1ccc(F)cc1 (stereo not shown)	122.9
CCCCCCCCCC(=O)N(CCN(C)C)C(C)c1nc2ccc(C)cc2c(=O)n1-c1ccc(F)cc1 (stereo not shown)	121

Now turn to the next molecule.
(Q) Return reported melting point. Input molecule: CCCCCCCCCC(=O)N(CCN(C)C)C(C)c1nc2ccc(OC)cc2c(=O)n1-c1ccc(OC)cc1 (stereo not shown)
(A) 124.2
